Tested on: HL-60 cells
Protocol notes: Effect on inducing differentiation of HL-60 cells (NBT-positive cells)
Format: cell-based, human
Measurement conditions: 6 days
I'd appreciate it if you marked entries class 1 when Maximum differentiation extent: Optimal conc. is lower than 0.5 µg/mL and class 0 when it is not.

CCCCCCCCCCCCCCCCNC(=O)OCC(COC(=O)N(Cc1cccc[n+]1CC)C(C)=O)OC (stereo not shown) | class 1
CCCCCCCCCCCCCCCCCCNC(=O)OCC(COC(=O)N(Cc1cccc[n+]1CCCC)C(C)=O)OC (stereo not shown) | class 1
CCCCCCCCCCCCCCNC(=O)OCC(COC(=O)N(Cc1cccc[n+]1CC)C(C)=O)OC (stereo not shown) | class 1
CCCCCCCCCCCCCCCCCCNC(=O)OCC(COC(=O)N(CC1CCC[N+]1(C)CC)C(C)=O)OC (stereo not shown) | class 1
CCCCCCCCCCCCCCCCCCNC(=O)OCC(COC(=O)N(Cc1cccc[n+]1CC)C(C)=O)OC (stereo not shown) | class 0
CCCCCCCCCCCCCCCCCCNC(=O)OCC(CNC(=O)N(Cc1cccc[n+]1C)C(C)=O)OC.[Cl-] (stereo not shown) | class 0

Problem: Consider CCCCCCCCCCCCCCCCCCNC(=O)OCC(CN1CC(=O)N(CC[N+](C)(C)C)C1=O)OC (stereo not shown) . Does its Maximum differentiation extent: Optimal conc. lie strictly below 0.5 µg/mL?
Result: class 0
